The reported numbers originate from patent US20080255206A1.

target: UniProt:P48443; assay: Retinoid activation assay, RXRγ (Schneider SL-3 cells, luciferase reporter); details: read-out: Activation EC50 RXR γ
Sequence (P48443 whole entry): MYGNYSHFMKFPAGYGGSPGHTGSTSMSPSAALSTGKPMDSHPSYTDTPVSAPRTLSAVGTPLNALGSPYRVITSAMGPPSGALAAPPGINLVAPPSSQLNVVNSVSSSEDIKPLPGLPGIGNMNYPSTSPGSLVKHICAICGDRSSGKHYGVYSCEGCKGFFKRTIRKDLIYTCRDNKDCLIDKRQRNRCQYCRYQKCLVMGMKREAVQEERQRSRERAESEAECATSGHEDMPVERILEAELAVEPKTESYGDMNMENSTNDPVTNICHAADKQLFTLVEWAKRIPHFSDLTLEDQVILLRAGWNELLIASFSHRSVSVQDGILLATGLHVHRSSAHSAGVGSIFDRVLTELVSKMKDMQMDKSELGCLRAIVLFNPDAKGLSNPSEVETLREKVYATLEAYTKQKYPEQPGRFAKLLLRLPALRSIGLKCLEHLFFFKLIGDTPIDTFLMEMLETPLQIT
Observable: EC50

**Q:** Recorded EC50 for CC1=C(C#CC2=C(/C=C/C(C)=C/C(=O)O)CCCCC2)C(C)(C)CCC1 , please?
**A:** ≥ 10 µM

**Q:** Recorded EC50 for CCCOc1c([C@@H]2C[C@@H]2/C=C/C(C)=C/C(=O)O)cc(C(C)(C)C)cc1C(C)(C)C (racemic) , please?
**A:** ≥ 10 µM

**Q:** Recorded EC50 for CCCCOc1c(\C(C)=C/C=C/C(C)=C/C(=O)O)cc(C(C)(C)C)cc1C(C)(C)C , please?
**A:** ≥ 10 µM

**Q:** Recorded EC50 for CC(/C=C/C1=C(c2ccc3c(c2)C(C)(C)CCC3(C)C)CCC1)=C\C(=O)O , please?
**A:** 0.15 µM

**Q:** Recorded EC50 for CCOc1c(\C(C)=C/C=C/C(C)=C/C(=O)O)cc(C(C)(C)C)cc1C(C)(C)C , please?
**A:** ≥ 10 µM
